target: HMG-CoA Reductase (Homo sapiens (Human), UniProt P04035); test: HMG-CoA Reductase assay kit (Sigma-Aldrich CS1090), spectrophotometric NADPH absorbance at 340 nm; type: biochemical; settings: rosuvastatin compounds; inhibitor varied 0 nM to 50 nM; NADPH and HMG-CoA 200 μM
Sequence (P04035 340-888): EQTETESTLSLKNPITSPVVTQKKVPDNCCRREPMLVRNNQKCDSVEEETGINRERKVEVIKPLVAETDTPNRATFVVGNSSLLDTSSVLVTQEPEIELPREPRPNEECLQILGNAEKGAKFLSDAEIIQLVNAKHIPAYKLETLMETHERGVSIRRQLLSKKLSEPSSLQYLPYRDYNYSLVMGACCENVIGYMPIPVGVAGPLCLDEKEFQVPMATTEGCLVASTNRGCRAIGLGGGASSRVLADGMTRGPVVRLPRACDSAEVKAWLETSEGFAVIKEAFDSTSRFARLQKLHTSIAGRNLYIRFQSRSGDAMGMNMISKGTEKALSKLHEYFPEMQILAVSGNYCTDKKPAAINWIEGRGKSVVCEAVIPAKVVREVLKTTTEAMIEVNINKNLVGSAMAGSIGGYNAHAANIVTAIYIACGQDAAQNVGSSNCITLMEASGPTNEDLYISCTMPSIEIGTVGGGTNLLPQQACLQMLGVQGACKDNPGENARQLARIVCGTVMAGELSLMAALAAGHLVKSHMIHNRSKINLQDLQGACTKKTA
pIC50: −log10 of the molar value.
metric: pIC50

Solved cases below.
compound="CC(C)c1nc(N(C)S(C)(=O)=O)nc(-c2ccc(F)cc2)c1/C=C/[C@@H]1C[C@@H](OCc2ccccc2)CC(OCC(Cl)(Cl)Cl)O1 (stereo partly drawn)" metric=pIC50 result=8.70
compound="COc1ccc(OC2C[C@H](O)C[C@@H](/C=C/c3c(-c4ccc(F)cc4)nc(N(C)S(C)(=O)=O)nc3C(C)C)O2)c(OC)c1 (stereo partly drawn)" metric=pIC50 result=8.70

[1] CC(C)c1nc(N(C)S(C)(=O)=O)nc(-c2ccc(F)cc2)c1/C=C/[C@@H]1C[C@@H](O)CC(OCC(Cl)(Cl)Cl)O1 (stereo partly drawn)
[2] CC(C)c1nc(N(C)S(C)(=O)=O)nc(-c2ccc(F)cc2)c1/C=C/[C@@H]1C[C@@H](O)CC(Oc2c(F)cc(F)cc2F)O1 (stereo partly drawn)
[3] CCCOC1C[C@H](O)C[C@@H](/C=C/c2c(-c3ccc(F)cc3)nc(N(C)S(C)(=O)=O)nc2C(C)C)O1 (stereo partly drawn)
List items by pIC50 in falling order. When ranking, write the labels in the order the request describes.
2, 1, 3
